CELL IC50 3T3/NEU: recorded values
Target: mouse fibroblast cell line transfected with the HER-2 oncogene (3T3/neu) (UniProt P04626, cells depend on it, species not given)
Assay: Cell proliferation assay (SRB), 3T3/neu
Format: cell-based
Details: EGFR −, Her-2 +++; 2 days, SRB
Give the number; µg/mL is assumed, so skip it.

As a guide, the following entries are already answered.
INSERT INTO assay_data (structure_notation, measurement_kind, result) VALUES
  ('COc1cc2ncc(C#N)c(Nc3ccc(N(Cc4cccnc4)C(C)=O)c(Cl)c3)c2cc1[N+](=O)[O-]', 'CELL IC50 3T3/NEU', 1.79),
  ('COc1cc2ncc(C#N)c(Nc3ccc(-n4ccnc4)c(Cl)c3)c2cc1[N+](=O)[O-]', 'CELL IC50 3T3/NEU', 1.09),
  ('COc1cc2ncc(C#N)c(Nc3ccc(Sc4nc5ccccc5c(=O)[nH]4)c(Cl)c3)c2cc1N', 'CELL IC50 3T3/NEU', 1.88);

Ask: Entry under review: COc1cc2ncc(C#N)c(Nc3ccc(N(Cc4cccnc4)C(C)=O)c(Cl)c3)c2cc1N . Reported CELL IC50 3T3/NEU?
Result: 2.4

Ask: # input molecule: COc1cc2ncc(C#N)c(Nc3ccc(-n4ccnc4)c(Cl)c3)c2cc1N ; wanted: its CELL IC50 3T3/NEU
Result: 0.53

Ask: So what's the measured CELL IC50 3T3/NEU for this one? CCOc1cc2ncc(C#N)c(Nc3ccc4c(c3)S(=O)(=O)C=C4)c2cc1OCC
Result: 0.251
